- system_name: T1, EsCas13d, nuclease-dead (Eubacterium siraeum, UniProt B0MS50, R295A;H300A;R849A;H854A)
- T1 sequence: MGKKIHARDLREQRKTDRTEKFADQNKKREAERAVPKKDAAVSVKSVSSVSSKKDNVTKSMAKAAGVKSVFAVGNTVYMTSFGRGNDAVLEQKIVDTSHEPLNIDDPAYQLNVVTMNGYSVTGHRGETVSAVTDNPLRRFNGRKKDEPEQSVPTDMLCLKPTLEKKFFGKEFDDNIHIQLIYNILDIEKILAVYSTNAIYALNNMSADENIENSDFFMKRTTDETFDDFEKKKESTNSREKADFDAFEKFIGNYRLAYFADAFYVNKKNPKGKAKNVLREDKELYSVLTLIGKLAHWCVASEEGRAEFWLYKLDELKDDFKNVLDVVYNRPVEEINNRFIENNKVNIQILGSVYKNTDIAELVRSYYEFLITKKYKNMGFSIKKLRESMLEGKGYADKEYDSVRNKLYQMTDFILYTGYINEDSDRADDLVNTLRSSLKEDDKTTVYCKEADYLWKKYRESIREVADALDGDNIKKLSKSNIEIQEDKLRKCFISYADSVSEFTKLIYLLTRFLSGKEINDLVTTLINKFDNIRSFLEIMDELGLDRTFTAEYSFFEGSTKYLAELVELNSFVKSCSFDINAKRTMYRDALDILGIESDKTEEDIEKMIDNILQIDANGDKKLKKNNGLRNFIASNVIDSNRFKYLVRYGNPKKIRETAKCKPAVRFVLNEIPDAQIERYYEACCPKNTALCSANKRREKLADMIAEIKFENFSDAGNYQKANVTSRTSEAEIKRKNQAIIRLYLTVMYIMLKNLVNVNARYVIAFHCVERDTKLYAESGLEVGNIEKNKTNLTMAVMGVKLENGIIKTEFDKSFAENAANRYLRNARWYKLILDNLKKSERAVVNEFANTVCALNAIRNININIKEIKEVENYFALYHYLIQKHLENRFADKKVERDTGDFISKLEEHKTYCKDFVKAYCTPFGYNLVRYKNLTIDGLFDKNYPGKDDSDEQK
- method_summary: crRNA (strand 1, pre-loaded); Mg2+; 40 mM Tris-HCl pH 7.5, 150 mM NaCl, 6 mM MgCl2, 1 mM DTT, 0.1% Tween-20, 0.2 mg/ml BSA; 25 C; 10 min per concentration, then washed
- measurement_context: tags: His6-TwinStrep-SUMO cleaved; N-terminal SNAP kept (SNAP-Surface 488); label: 3' end held by stalled T7 RNA polymerase
Kd overview
Write down the numeric answer in nM and omit the unit.

// worked examples, Kd included
• target 1 U3G,C6G (mixed) RNA 1: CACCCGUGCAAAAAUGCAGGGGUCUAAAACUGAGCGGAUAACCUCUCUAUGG RNA 2: GGGAAUGGAUCCACAUCUACGAAUUCGUACCAUAGAGAGGUUAUCGGCGCACCGAGAUCGGAAGAGCACACGU = 4.32
• target 1 insA 3' of 6,insG 3' of 1 (mixed) RNA 1: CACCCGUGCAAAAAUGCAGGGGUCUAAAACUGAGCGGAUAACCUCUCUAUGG RNA 2: GGGAAUGGAUCCACAUCUACGAAUUCGUACCAUAGAGAGGUUAUCCAGCUCAGCCGAGAUCGGAAGAGCACACGU = 16
• target 2 MT 5'PFS GGG 3'PFS UCU (mixed) RNA 1: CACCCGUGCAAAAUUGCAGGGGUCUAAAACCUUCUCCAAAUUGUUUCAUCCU RNA 2: GGGAAUGGAUCCACAUCUACGAAUUCGGGAGGAUGAAACAAUUUGGAGAAGUCUAGAUCGGAAGAGCACACGU = 12.1

Now turn to the next binder.
Which measured Kd value corresponds to target 1 MT 5'PFS UAG 3'PFS UUA (mixed) RNA 1: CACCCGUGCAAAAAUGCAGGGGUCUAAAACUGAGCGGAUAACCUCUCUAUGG RNA 2: GGGAAUGGAUCCACAUCUACGAAUUCUAGCCAUAGAGAGGUUAUCCGCUCAUUAAGAUCGGAAGAGCACACGU ? 18.4

These measurements were taken from paper PMC10786891.
